# Tested on: NCI-H322M lung
# test description: NCI-60 one-dose screen, 48 h
# experimental setup: 10 µM unless noted
The panel holds about 83,000 compounds, 20% with a hit somewhere; the sample as a whole holds those more often. Active and inactive are the calls of the source. The calls were made as follows: active = growth percent below 10; inactive = the rest.
# output must be one of 1.0 (active), 0.0 (inactive)

q: Assay outcome for O=C1C(Cl)=C(Nc2cccc3cc4ccccc4nc23)C(=O)c2ccccc21 : what was it?
a: 0.0

q: Would you mind telling me which call this test gave CCN(CC)CCNC(=O)c1c(C)[nH]c(/C=C2\C(=O)Nc3cc(NC(=O)NC(=O)c4ccc(OC)cc4F)ccc32)c1C ?
a: 0.0

q: Status in this test for COc1ccc(/C(=C/c2cc(OC)c(OC)c(OC)c2)[N+](=O)[O-])cc1 ?
a: 0.0

q: I would be grateful if you could indicate the recorded call for CC(C)(C)OC(=O)NCc1cccc(N=C=S)c1 .
a: 0.0

q: What did this assay record as the result for COc1ccc(Cl)cc1NC(=O)c1cc2c([nH]1)-c1nc(NC(=O)C(C)C)sc1CC2 ?
a: 0.0

q: Hey, what did the test say about O=C1COc2ccccc2C(=O)N1CCCCNc1ccccc1 ?
a: 0.0

q: Record request — test call for COc1ccc(C[C@H](N)C(=O)N[C@@H]2[C@@H](CO)OC(n3cnc4c(N(C)C)ncnc43)[C@@H]2O)cc1 (some centres undefined)
a: 1.0

q: Hello, I am checking results. What call was entered for CCOc1ccc(Cc2nccc3cc(OCC)c(OCC)cc23)cc1OCC ?
a: 0.0

q: How was C=C1C(=O)O[C@H]2[C@H]1CC/C(C(=O)Nc1ccc(OC)c(C(N)=O)c1O)=C\CC[C@@]1(C)O[C@@H]21 classified in this test?
a: 0.0

q: # outcome recorded in this test, key = CCOC(=O)C1=C(N)Oc2cc(OC)ccc2C1c1ccc(F)c(F)c1 (centres undefined)
a: 0.0

q: Record lookup: outcome of this test for O=S(=O)(CCN1CCOCC1)Nc1cc(-c2ccc3ncnc(Nc4ccc(F)c(Cl)c4)c3c2)cnc1Cl ?
a: 1.0

q: Fill in: this test's call for O=C(Nc1ccc(-n2ccc3c(NC(=O)c4ccccc4)ncnc32)cc1)c1ccc(Cl)c(C(F)(F)F)c1 is ___
a: 0.0

q: Which outcome was assigned to Cc1ccc(N(CC2=NCCN2)c2cccc(O)c2)cc1 in this test?
a: 0.0

q: How did this test come out for Cc1cccc[n+]1CCC[n+]1ccccc1C ?
a: 0.0

====

# Tested on: HCT-15 colon
# test description: NCI-60 one-dose screen, 48 h (100 = growth as untreated, 0 = no growth, -100 = all killed)
# experimental setup: 10 µM unless noted
This is part of a sample that, as a whole, favours compounds with a hit. Of some 83,000 tested, about 20% had one in any assay.
measured property: growth (%)
Give a bare numeral; the unit % is implied.

Sample COC(=O)c1oc2c(C(C)=O)c(OCCN3CCCCC3)ccc2c1C ; growth observed: 110

For record CCOC(=O)NNc1nncc2ccccc12 the listed growth is 101

Entry under test: CN(C)c1ccc(/C=c2\s/c(=C\C(=O)C(C)(C)C)[nH]c2=O)cc1 . Its growth was 95.5

Reported growth of Cc1c(F)cccc1NC(=O)c1sc2nc3c(cc2c1N)CCCCC3 : 28.5

So for O=C1C(Cl)=C(Nc2cccc3cc4ccccc4nc23)C(=O)c2ccccc21 , the logged growth turned out to be 41.4

Query O=C(Nc1cccc(-n2ccc3c(NC(=O)c4ccccc4)nccc32)c1)Nc1ccc(Cl)c(C(F)(F)F)c1 yields growth of 10.6

Per the records, this compound ( CC[C@@]1(O)C(=O)OCc2c1cc1n(c2=O)Cc2c-1nc1ccccc1c2/C=N/OC(C)(C)C ) has growth equal to 11.2

Notebook: Clc1ccc2c(c1)nnn1c3ncccc3c(Br)c21 , growth read as 101

Consider CN(C)c1ccc(/C=N/N=C(N)N)cc1 . Its measured growth is 49

The reported value for CC(=O)n1cc(/C=C2\N=C(c3ccc(Cl)cc3)N(c3ccc(S(=O)(=O)Nc4nccs4)cc3)C2=O)c2ccccc21 in terms of growth is 95

So, O=[N+]([O-])c1cccc(C(c2ccccc2)c2ccccc2)c1 ? Its growth was 95.3

# growth of CCn1c(SCC(=O)c2ccc(Br)cc2)nnc1-c1cc2c([nH]c3ccccc32)c(-c2cccc(O)c2)n1 = 56.2

====

# Test system: K-562 leukemia
# test description: NCI-60 one-dose screen, 48 h (100 = growth as untreated, 0 = no growth, -100 = all killed)
# experimental setup: 10 µM unless noted
# Method: Cells are grown in 96 well plates and exposed to the test compound for 48 hours. Compounds are tested at a single concentration, which is 10^-5 M for most compounds. The reported endpoint is percent growth (GI% or GIPRCNT), where numbers from 0 - 100% represent growth inhibition, and numbers from -100% - 0 represent cell death. For example, a value of 40 represents 60% growth inhibition. A value of 0 means no net growth occurred over the course of the experiment. […]
About 83,000 compounds went through this panel and 20% of them were active in at least one assay; those are over-represented in the sample as a whole.
For each record, write down the corresponding growth.
Report the figure in % without appending any unit label.

Form field growth, entry CS(=O)(=O)Nc1cccc(-c2ccc3ncnc(Nc4cncc(Cl)c4)c3c2)c1 : 16.9

Lab book: growth of CC(C)(C)NC(C1=CC(C)(C)c2ccccc2C1=O)c1ccccc1 (centres undefined) noted as -34.8

Data point: O=S(=O)(O)c1ccc(F)cc1 ; growth = 85

Sure, the documented growth for C[C@]12O[C@H]1[C@H](O)c1c(cc(O)c3c1C(=O)c1cccc(O)c1-3)C2=O is 93.9

====

# Test system: MCF7 breast
# test description: NCI-60 one-dose screen, 48 h (100 = growth as untreated, 0 = no growth, -100 = all killed)
# experimental setup: 10 µM unless noted
Compounds without any hit were thinned out: in the full panel of roughly 83,000, 20% have a hit.
measured property: growth (%)
Write it as a number; the unit % goes unstated.

# Cc1cc(O[C@@H]2O[C@@H](C)[C@H](O)[C@@H](O)[C@H]2O)c2c3c(c(O[C@@H]4O[C@@H](C)[C@H](O)[C@@H](O)[C@H]4O)cc2c1)C(=O)c1c(O)cccc1C3=O with MCF7 breast: growth is 81

CC(=O)Cc1cccnc1 tested on MCF7 breast gave growth: 101

Query COC(=O)CCCNS(=O)(=O)c1cc(C(=O)Nc2ccc(NC(=O)c3cc(S(=O)(=O)NCCCC(=O)OC)c(O)c(O)c3O)cc2)c(O)c(O)c1O on MCF7 breast; growth returned: 73.7

growth value, target or system MCF7 breast, for Cc1ccc(/C=C2/C(=O)Nc3cc(Cl)c(-c4csc(N)n4)cc32)cc1 : 35.8

I looked up Cc1cccc(NCS(=O)(=O)O)c1 and its growth for MCF7 breast was 95.1

Sample COc1cc2c(cc1OCCCCC(=O)Nc1ccc(-c3nc4ccccc4s3)cc1)N=C[C@@H]1CCCN1C2=O , system: MCF7 breast. Its growth is 1.14

C=C1C(=O)O[C@H]2[C@H]1CC/C(COC(=O)c1ccc(Cl)nc1)=C\CC[C@@]1(C)O[C@@H]21 tested on MCF7 breast gave growth: 7.96

The reported MCF7 breast growth of COc1ccc(/C=C2\CS(=O)(=O)C/C(=C\c3ccc(OC)cc3)C2=O)cc1 is -15

Item Cc1ccc2c(C3C(C#N)=C(N)Oc4cc5ccccc5cc43)cc(=O)oc2c1 (centres undefined) ; assay system MCF7 breast; growth reported as 17.9

====

For each entry below, report its growth value.
# System: COLO 205 colon
# test description: NCI-60 one-dose screen, 48 h (100 = growth as untreated, 0 = no growth, -100 = all killed)
# experimental setup: 10 µM unless noted
About 83,000 compounds went through this panel and 20% of them were active in at least one assay; those are over-represented in the sample as a whole.
Provide only the numeric value, understood in %.

Record CC[C@H]1[C@@H]2C=C[C@@H]3[C@H]4C/C=C\C(=O)NCCC[C@@H]5NC(=O)/C(=C(O)/C=C/[C@@H]4C[C@@H]3[C@H]2C[C@H]1C)C5=O , field growth: 66

Lab note: O=C(Nc1ccc(-n2ccc3c(NC(=O)c4ccccc4)nccc32)cc1)c1cccc(C(F)(F)F)c1 gave growth of 35.8

Recorded result, CCCCOc1nc2ccc(Cl)cc2cc1/C=C/C(=O)/C=C/c1ccc(OC)cc1 , growth: 93.1

Entry Nc1nc(-c2cc3c(cc2Cl)NC(=O)/C3=C/c2ccc(Cl)cc2)cs1 — recorded growth = 61.7

Recorded result, Nc1ncc(-c2ccc3ncnc(Nc4ccc(F)c(Cl)c4)c3c2)cn1 , growth: 32.3

The reported value for Cc1ccc(-c2cn3cc([N+](=O)[O-])ccc3n2)cc1 in terms of growth is 94.4

The compound listed as O=C(Nc1ccccc1Cl)c1c[nH]c(=O)c(-c2ccc(N3CCCOC4(CC4)C3)cc2)c1 shows growth equal to 81.4

Quick note, growth for COc1ccc(-c2coc3c(CO)c(O)ccc3c2=O)cc1 landed at 115

Reported growth for Cc1ccn2cc(Cc3cc(=O)oc4c3ccc3ccccc34)c(=O)nc2c1 was 102

Reported growth of C[C@@H]1CC2C3C[C@H](F)C4=CC(=O)C=C[C@]4(C)[C@@]3(F)[C@@H](O)C[C@]2(C)[C@@]1(O)C(=O)CO (some centres undefined) : 99.3

// growth value for CCOC(=O)c1noc2c1CCc1c-2cn(Cc2ccc(OC)cc2)c1-c1cc(OC)c(OC)c(OC)c1 : 1.98

What the record says about Nc1ncnc2c1c(-c1ccc(Oc3ccccc3)cc1)nn2C[C@@H]1SSC[C@H]1O : growth is 52

In plain terms, CCC1CN2C(=N1)c1ccccc1-c1cc(Cl)ccc12 (centres undefined) has a documented growth of 18.4

// field: growth; key: Cl[C@@H]1CCO[C@H](c2cc3ccccc3c3ccccc23)C1 ; value = 104

The compound O=C(O)c1ccc(-n2cc(/C=N/Nc3ccccc3F)c(-c3ccc(O)cc3)n2)cc1 showed growth equal to 95.9

get_value(item= CC12CCC3C(CCC4CC(O)CCC43C)C1C/C(=C/O)C(=O)O2 (centres undefined) , readout=growth) returns 105

Given item COc1cc(/C=C/C(=O)c2ccc(Oc3ncnc4ccccc34)cc2)cc(OC)c1OC , the value recorded as its growth is 109

The compound listed as Nc1ncnc2c1ccn2-c1cccc(NC(=O)c2cccc(C(F)(F)F)c2)c1 shows growth equal to 75.7

Measured growth, CCOC(=O)c1[nH]c(-c2ccc(Cl)cc2)cc1-c1cccnc1 : -15.5

Item: CC1=C[S+](c2ccccc2)c2cccc3cc4ccccc4c1c23 (centres undefined) | growth: -89.5

Note to self: growth recorded for O=C(c1ccccc1)[C@H]1[C@@H]2CCCN2[C@]2(C(=O)Nc3ccc(F)cc32)[C@]12C(=O)Nc1ccccc12 was 93.8

Per the records, this compound ( CCCCNc1cc(C(=O)O)cc(S(N)(=O)=O)c1Oc1ccccc1 ) has growth equal to 98.6

// growth value for CC(C)Cn1cnc2c3ccccc3nc(NCn3nc(-c4cc(Cl)cc(Cl)c4Cl)oc3=S)c21 : 97.5

Please fill in: growth reported for Cc1ccc(N(CC2=NCCN2)c2cccc(O)c2)cc1 = 119

In plain terms, C=C1C(=O)O[C@H]2[C@H]1CC/C(C(=O)Nc1ccc(OC)c(C(N)=O)c1O)=C\CC[C@@]1(C)O[C@@H]21 has a documented growth of 10.7

In plain terms, COc1ccc(/C=N/C2=NNC(C)(c3ccccc3O)N2C(Cc2c[nH]c3ccccc23)C(=O)O)cc1 (centres undefined) has a documented growth of 8.42

// recorded growth for CSc1ccc(C(=O)C[n+]2cccc(C)c2)cc1 : 109

# compound C#C[C@@]1(O)[C@@H](CO)O[C@@H](n2cc(Br)c3c(Cl)ccnc32)[C@@H]1O ; its growth = 17.2

Summary for this compound, Nc1ncnc2c1ncn2C1OC(COC(c2ccccc2)(c2ccccc2)c2ccccc2)C(O)C1O (centres undefined) : growth is 99.4

Memo: COc1cc(NC(C)CCCN2C(=O)c3ccccc3C2=O)c2nccc(C)c2c1OC (centres undefined) , reported growth: 131

Reported growth ( O=C(Cn1c2ccccc2c2ccncc21)N/N=C\c1ccc2ccccc2c1 ) = 31.6

Per the record, CCCC(C)(C)COC(=O)c1cccc(N)c1 has growth of 110

Looking up C=C1C(=O)O[C@H]2[C@H]1CC/C(COC(=O)c1ccc(Br)cc1)=C\CC[C@@]1(C)O[C@@H]21 , I see its growth listed as -67.2

Given item FC(F)(F)c1cccc([Si](F)(c2cccc(C(F)(F)F)c2)c2cccc(C(F)(F)F)c2)c1 , the value recorded as its growth is 102

The reported numbers originate from PubChem BioAssay (NCI).
